Molecular target: EGFR L858R/C797S Ba/F3 cells (Homo sapiens, UniProt P00533, C797S/L858R, cells depend on it)
Sequence (P00533 whole entry C797S/L858R): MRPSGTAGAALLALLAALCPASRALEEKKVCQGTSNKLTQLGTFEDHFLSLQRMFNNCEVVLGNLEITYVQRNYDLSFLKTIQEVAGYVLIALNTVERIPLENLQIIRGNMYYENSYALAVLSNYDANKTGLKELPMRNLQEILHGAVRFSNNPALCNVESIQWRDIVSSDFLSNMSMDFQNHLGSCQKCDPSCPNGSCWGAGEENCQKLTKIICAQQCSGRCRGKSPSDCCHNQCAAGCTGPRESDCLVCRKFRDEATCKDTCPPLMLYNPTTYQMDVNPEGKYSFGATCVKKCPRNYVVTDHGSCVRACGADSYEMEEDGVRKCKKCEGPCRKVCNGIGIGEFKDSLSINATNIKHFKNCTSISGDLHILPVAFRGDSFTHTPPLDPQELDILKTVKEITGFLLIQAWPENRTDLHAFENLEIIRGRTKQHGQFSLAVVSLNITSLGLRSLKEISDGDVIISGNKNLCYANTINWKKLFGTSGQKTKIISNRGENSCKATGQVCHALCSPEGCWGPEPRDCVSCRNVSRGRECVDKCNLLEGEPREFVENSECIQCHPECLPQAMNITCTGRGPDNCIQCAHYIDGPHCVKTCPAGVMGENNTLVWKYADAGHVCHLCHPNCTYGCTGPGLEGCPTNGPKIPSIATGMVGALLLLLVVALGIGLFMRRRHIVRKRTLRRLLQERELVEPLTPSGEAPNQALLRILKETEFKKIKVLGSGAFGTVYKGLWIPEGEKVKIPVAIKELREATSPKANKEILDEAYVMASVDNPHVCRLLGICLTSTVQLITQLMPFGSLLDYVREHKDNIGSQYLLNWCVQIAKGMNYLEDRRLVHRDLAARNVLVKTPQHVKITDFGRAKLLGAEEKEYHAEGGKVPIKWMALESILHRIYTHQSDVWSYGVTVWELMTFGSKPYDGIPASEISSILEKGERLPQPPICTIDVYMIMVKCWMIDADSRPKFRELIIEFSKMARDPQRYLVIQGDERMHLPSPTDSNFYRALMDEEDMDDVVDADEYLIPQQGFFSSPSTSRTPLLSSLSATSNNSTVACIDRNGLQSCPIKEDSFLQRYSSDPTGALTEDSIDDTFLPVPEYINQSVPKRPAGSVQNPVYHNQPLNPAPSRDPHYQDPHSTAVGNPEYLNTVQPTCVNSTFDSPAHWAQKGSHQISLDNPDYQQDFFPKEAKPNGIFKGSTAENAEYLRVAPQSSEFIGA
Assay: Ba/F3 cell proliferation (Cell Titer Glo), EGFR L858R/C797S
Assay type: cell-based, murine
Conditions: 72 hours exposure, read-out: L858R/C797S (μM), inhibitory activity against EGFR mutants
EXPERIMENTAL ENDPOINT: GI50

1. C=CC(=O)N1CCN(c2cc3cnc(Nc4ccc(OCCN(C)C)cc4)nc3n(CCO)c2=O)c2cccc(C)c21 | ≤ 0.25 µM
2. C=CC(=O)N1CCN(c2cc3cnc(Nc4ccc(N5CCN(C)CC5)cc4)nc3n(C)c2=O)c2ccccc21 | ≤ 0.25 µM
3. C=CC(=O)Nc1ccccc1Oc1cc2cnc(Nc3ccc(N4CCN(C)CC4)nc3)nc2n(C)c1=O | ≥ 2.5 µM
4. C=CC(=O)N1CCN(c2cc3cnc(Nc4ccc(N5CCN(C)CC5)cn4)nc3n(C)c2=O)c2cccc(C)c21 | ≤ 0.25 µM

====

Biological target: EGFR mutant L858R Ba/F3 cells (Homo sapiens, UniProt P00533, L858R, cells depend on it)
Sequence (P00533 whole entry L858R): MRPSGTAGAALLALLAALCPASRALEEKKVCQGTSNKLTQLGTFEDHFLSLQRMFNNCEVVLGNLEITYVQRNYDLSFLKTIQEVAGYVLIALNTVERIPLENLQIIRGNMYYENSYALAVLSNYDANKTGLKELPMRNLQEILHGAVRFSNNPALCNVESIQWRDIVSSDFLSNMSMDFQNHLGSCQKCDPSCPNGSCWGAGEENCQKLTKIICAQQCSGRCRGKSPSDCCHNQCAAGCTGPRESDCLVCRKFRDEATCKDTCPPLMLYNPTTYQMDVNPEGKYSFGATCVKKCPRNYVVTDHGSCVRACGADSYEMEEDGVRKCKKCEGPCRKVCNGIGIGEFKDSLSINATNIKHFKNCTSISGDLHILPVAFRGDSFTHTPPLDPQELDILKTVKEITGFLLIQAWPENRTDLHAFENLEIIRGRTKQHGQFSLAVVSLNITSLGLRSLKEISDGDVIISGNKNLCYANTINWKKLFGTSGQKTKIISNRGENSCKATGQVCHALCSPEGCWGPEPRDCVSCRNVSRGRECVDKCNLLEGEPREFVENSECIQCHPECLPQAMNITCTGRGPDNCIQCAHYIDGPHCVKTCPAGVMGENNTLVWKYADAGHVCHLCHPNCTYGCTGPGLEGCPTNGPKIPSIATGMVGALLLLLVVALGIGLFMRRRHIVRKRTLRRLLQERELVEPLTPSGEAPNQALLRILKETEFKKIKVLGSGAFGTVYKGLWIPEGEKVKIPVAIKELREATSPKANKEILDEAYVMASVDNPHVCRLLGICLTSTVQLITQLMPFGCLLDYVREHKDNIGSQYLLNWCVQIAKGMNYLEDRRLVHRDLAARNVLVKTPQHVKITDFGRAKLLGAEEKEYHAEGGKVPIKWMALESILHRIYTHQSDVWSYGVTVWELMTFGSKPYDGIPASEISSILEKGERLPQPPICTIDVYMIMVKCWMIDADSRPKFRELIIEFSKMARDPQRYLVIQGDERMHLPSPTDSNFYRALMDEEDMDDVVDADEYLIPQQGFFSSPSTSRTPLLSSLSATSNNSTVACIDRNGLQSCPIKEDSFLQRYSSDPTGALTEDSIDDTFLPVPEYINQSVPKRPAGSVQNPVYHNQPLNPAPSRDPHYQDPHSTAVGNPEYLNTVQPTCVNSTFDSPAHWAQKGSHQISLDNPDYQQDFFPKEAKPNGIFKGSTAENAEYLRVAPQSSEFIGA
Assay: Ba/F3 cell proliferation (Cell Titer Glo), EGFR L858R
Type: cell-based, murine
Settings: 72 hours exposure, read-out: L858R BaF3 (μM), inhibitory activity against EGFR mutants
Recorded GI50 for the following compounds
EXPERIMENTAL ENDPOINT: GI50

1) C=CC(=O)N1CCN(c2cc3cnc(Nc4ccc(OCCN(C)C)cc4)nc3n(C3CC(OC)C3)c2=O)c2cccc(C)c21 (stereo not shown) [Compound 071] | ≤ 0.25 µM
2) C=CC(=O)N1CCN(c2cc3cnc(NC4CC4)nc3n(-c3ccc(N(C)CCN(C)C)cc3)c2=O)c2cccc(C)c21 [Compound 095] | ≤ 0.25 µM
3) C=CC(=O)N1CCN(c2cc3cnc(Nc4cc5c(cc4F)CCN(C)C5)nc3n(C)c2=O)c2cccc(C)c21 [Compound 061] | ≤ 0.25 µM
4) C=CC(=O)N1CCN(c2cc3cnc(NC4CC4)nc3n(-c3ccc(OCCN(C)C)cc3)c2=O)c2cccc(C)c21 [Compound 082] | ≤ 0.25 µM
5) C=CC(=O)N1CCN(c2cc3cnc(Nc4ccc5c(c4)CN(S(C)(=O)=O)CC5)nc3n(C)c2=O)c2cccc(C)c21 [Compound 035] | ≤ 0.25 µM
6) C=CC(=O)N1CCN(c2cc3cnc(Nc4ccnc(OC)c4)nc3n(C)c2=O)c2cccc(C)c21 [Compound 062] | ≤ 0.25 µM
7) C=CC(=O)N1CCN(c2cc3cnc(Nc4cnn(CCO)c4)nc3n(C)c2=O)c2cccc(C)c21 [Compound 038] | ≤ 0.25 µM
8) C=CC(=O)N1CCN(c2cc3cnc(N)nc3n(-c3ccc(CN4CCOCC4)cc3)c2=O)c2cccc(C)c21 [Compound 094] | ≤ 0.25 µM
9) C=CC(=O)N1CCN(c2cc3cnc(Nc4ccc(N5CCN(C)CC5)cc4)nc3n(-c3cccnc3)c2=O)c2cccc(C)c21 [Compound 052] | ≤ 0.25 µM
10) C=CC(=O)N1CC(C)N(c2cc3cnc(Nc4ccc(N5CCN(C)CC5)cc4)nc3n(C)c2=O)C(C)C1 (stereo not shown) [Compound 022] | ≥ 2.5 µM
11) C=CC(=O)N1CCN(c2cc3cnc(N)nc3n(-c3cccc(Cl)c3)c2=O)c2cccc(C)c21 [Compound 091] | ≤ 0.25 µM
12) C=CC(=O)N1CCN(c2cc3cnc(Nc4cnn(CCO)c4)nc3n(C)c2=O)c2cccc(OC)c21 [Compound 020] | ≤ 0.25 µM
13) C=CC(=O)N1CC2CCN(c3cc4cnc(Nc5ccc(N6CCN(C)CC6)cc5)nc4n(C)c3=O)C[C@@H]2C1 (stereo partly shown) [Compound 023] | ≥ 2.5 µM
14) C=CC(=O)N1CCN(c2c(F)c3cnc(Nc4ccc(N5CCN(C)CC5)cc4)nc3n(C)c2=O)c2c(F)cc(F)c(C)c21 [Compound 059] | ≤ 0.25 µM
15) C=CC(=O)N1CCN(c2cc3cnc(Nc4ccc(N5CCN(C)CC5)cc4OC)nc3n(C)c2=O)c2cccc(C)c21 [Compound 029] | ≤ 0.25 µM
16) C=CC(=O)N1CCN(c2cc3cnc(Nc4ccc(CS(=O)(=O)NC)cc4)nc3n(C)c2=O)c2cccc(C)c21 [Compound 034] | ≤ 0.25 µM
17) C=CC(=O)N1CCN(c2cc3cnc(Nc4ccc(OCCN(C)C)cc4)nc3n(C)c2=O)c2cc(O)ccc21 [Compound 078] | ≤ 0.25 µM
18) C=CC(=O)NC1CCCN(c2cc3cnc(Nc4cnn(CCO)c4)nc3n(C)c2=O)C1 (stereo not shown) [Compound 015] | ≥ 2.5 µM
19) C=CC(=O)N1CCN(c2cc3cnc(Nc4ccc(OCCN(C)C)cc4)nc3n(C3CCOC3)c2=O)c2cccc(C)c21 (stereo not shown) [Compound 072] | ≤ 0.25 µM
20) C=C(F)C(=O)NC1CCN(c2cc3cnc(Nc4cnn(CCO)c4)nc3n(C)c2=O)CC1 [Compound 018] | ≥ 2.5 µM
21) C=CC(=O)N1CCN(c2cc3cnc(NC4CC4)nc3n(C3CCOC3)c2=O)c2cccc(C)c21 (stereo not shown) [Compound 096] | ≤ 0.25 µM
22) C=CC(=O)Nc1ccccc1Cc1cc2cnc(Nc3ccc(N4CCN(C)CC4)cc3)nc2n(C)c1=O [Compound 001] | 0.25 to 0.5 µM
23) C=CC(=O)N1CCC(c2cc3cnc(Nc4cnn(CCO)c4)nc3n(C)c2=O)c2ccccc21 (stereo not shown) [Compound 017] | ≤ 0.25 µM
24) C=CC(=O)N1CCN(c2cc3cnc(N)nc3n(-c3ccc(OCCN(C)C)c(F)c3)c2=O)c2cccc(C)c21 [Compound 104] | ≤ 0.25 µM
25) C=CC(=O)N1CCN(c2cc3cnc(Nc4ccccc4)nc3n(C3CC(OC)C3)c2=O)c2cccc(C)c21 (stereo not shown) [Compound 084] | ≤ 0.25 µM
26) C=CC(=O)N1CCN(c2cc3cnc(N)nc3n(-c3ccc(OCCN(C)C)nc3)c2=O)c2cccc(C)c21 [Compound 079] | ≤ 0.25 µM
27) C=CC(=O)N1CCN(c2cc3cnc(Nc4ccc(OCCN(C)C)cc4)nc3n(C)c2=O)c2cccc(O)c21 [Compound 066] | ≤ 0.25 µM
28) C=CC(=O)N1CCN(c2cc3cnc(Nc4ccc(OCCN(C)C)cc4)nc3n([C@H]3C[C@@](C)(O)C3)c2=O)c2cccc(C)c21 [Compound 056] | ≤ 0.25 µM

Where do these numbers come from? They come from patent US20250221998A1.
